Test system: Magnaporthe vegetative mycelia, wild type Guy11
Experiment: microbe, parasite or virus in culture
Format: cell-based, Magnaporthe grisea
Details: Pyricularia oryzae, read-out: Minimum Inhibitory Concentration (MIC), Guy11
Experimental Endpoint: MIC (µg/mL)
A number alone suffices; assume µg/mL.

Ask: // query MIC value for entry `CCCCNC(=O)n1c(NC(=O)OC)nc2ccccc21`
Result: 2

Ask: Which MIC value is on record for CCC(C)n1ncn(-c2ccc(N3CCN(c4ccc(OCC5COC(Cn6cncn6)(c6ccc(Cl)cc6Cl)O5)cc4)CC3)cc2)c1=O (stereo not shown) ?
Result: 2000

Ask: So what does the record say about MIC for `CC(C)[C@@H]1NC(=O)[C@H](C)OC(=O)[C@@H](C(C)C)NC(=O)[C@@H](C(C)C)OC(=O)[C@H](C(C)C)NC(=O)[C@H](C)OC(=O)[C@@H](C(C)C)NC(=O)[C@@H](C(C)C)OC(=O)[C@H](C(C)C)NC(=O)[C@H](C)OC(=O)[C@@H](C(C)C)NC(=O)[C@@H](C(C)C)OC1=O` ?
Result: 20

Ask: MIC for `OC(Cn1cncn1)(Cn1cncn1)c1ccc(F)cc1F` ?
Result: 2500

All figures here come from patent US8193160B2.
